The measured values listed here are drawn from patent US11918592B2.

- Tested on: HCC70 cells
- assay-protocol: Inhibition of cell proliferation, CyQUANT Direct, HCC70
- Format: cell-based, human
- settings: HCC70 triple negative breast cancer cells, 72-hour; read-out: HCC 70 proliferation calculated IC50
reported-property: IC50

## Input Could you tell me which IC50 is on file for `Cc1noc(C)c1-c1ccc2c(-c3nc(N[C@@H]4C[C@H]5CC[C@@H]4N5)ncc3C(F)(F)F)c[nH]c2c1` ?
## Output 100 to 500 nM

###

- experimental-system: CDK7/Cyclin H/MAT1 complex (Homo sapiens, UniProt P50613)
- Sequence (P50613 whole entry): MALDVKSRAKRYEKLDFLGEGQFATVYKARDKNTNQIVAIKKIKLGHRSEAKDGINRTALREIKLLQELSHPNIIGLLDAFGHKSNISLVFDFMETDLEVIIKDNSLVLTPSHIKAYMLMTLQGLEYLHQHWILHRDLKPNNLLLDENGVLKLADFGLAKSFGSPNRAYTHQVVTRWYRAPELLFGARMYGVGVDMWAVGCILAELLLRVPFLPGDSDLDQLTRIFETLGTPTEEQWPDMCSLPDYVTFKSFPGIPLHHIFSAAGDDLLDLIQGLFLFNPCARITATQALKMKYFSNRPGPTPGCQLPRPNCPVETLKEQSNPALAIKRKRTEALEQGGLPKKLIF
- Sequence (P51946 whole entry partner): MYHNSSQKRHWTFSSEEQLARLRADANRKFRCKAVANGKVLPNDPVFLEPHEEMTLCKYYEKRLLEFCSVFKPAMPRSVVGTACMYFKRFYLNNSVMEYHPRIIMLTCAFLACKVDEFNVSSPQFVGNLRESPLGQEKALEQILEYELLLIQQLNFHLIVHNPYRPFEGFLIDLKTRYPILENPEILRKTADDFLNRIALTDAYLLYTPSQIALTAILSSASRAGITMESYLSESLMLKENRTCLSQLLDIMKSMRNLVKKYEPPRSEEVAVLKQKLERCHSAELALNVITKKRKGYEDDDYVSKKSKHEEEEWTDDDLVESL
- Sequence (P51948 whole entry partner): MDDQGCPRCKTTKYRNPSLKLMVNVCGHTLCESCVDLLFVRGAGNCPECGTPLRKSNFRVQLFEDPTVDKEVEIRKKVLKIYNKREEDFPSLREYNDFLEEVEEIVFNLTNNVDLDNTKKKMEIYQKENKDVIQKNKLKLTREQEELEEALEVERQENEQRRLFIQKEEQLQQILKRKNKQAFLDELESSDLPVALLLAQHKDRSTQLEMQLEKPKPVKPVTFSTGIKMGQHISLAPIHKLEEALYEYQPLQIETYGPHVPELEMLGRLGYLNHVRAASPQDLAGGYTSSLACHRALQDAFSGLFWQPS
- assay-protocol: CDK7 kinase inhibition assay (Caliper/LabChip EZ Reader)
pIC50: −log10 of the molar value.
Assignment: determine reported pIC50 for the given compounds.

Some solved cases for reference:
>>> result("COCCNC1CCC[C@@H]1Nc1ncc(C(F)(F)F)c(-c2c[nH]c3nc(-c4c(C)noc4C)ccc23)n1 (stereo in doubt) [Compound 152]")
"> 7.52"
>>> result("Cc1noc(C)c1-c1ccc2c(-c3nc(N[C@@H]4C[C@H]5CC[N@](CC5)C4)ncc3C(F)(F)F)cn(S(=O)(=O)c3ccccc3)c2n1 [Compound 142]")
"> 7.52"
>>> result("N[C@H]1CCC[C@@H]1Nc1ncc(C(F)(F)F)c(-c2c[nH]c3c(Cl)c(O)ccc23)n1 [Compound 168]")
"> 7.52"

Please go through the list and note pIC50 for each compound.
1. CCN[C@H]1CC[C@@H]1Nc1ncc(C(F)(F)F)c(-c2c[nH]c3cc(C#N)ccc23)n1 [Compound 131]
2. N#Cc1ccc2c(-c3nc(NC[C@@H]4COCCN4)ncc3C(F)(F)F)c[nH]c2c1 [Compound 102]
3. N#Cc1ccc2c(-c3nc(N[C@H]4CCC[C@@H]4N4CCCC4)ncc3C(F)(F)F)c[nH]c2c1 [Compound 122]
4. N#Cc1ccc2c(-c3nc(N[C@@H]4CC[C@H]4N4CCOCC4)ncc3C(F)(F)F)c[nH]c2c1 [Compound 132]
5. N#Cc1ccc2c(-c3nc(N[C@@H]4CNC[C@H]4F)ncc3C(F)(F)F)c[nH]c2c1 (relative stereo) [Compound 110]

## Output
1. > 7.52
2. < 6.30
3. 7.00 to 7.52
4. < 6.30
5. 6.30 to 7.00

Record pIC50 per entry; entries follow.
1. Cc1noc(C)c1-c1ccc2c(-c3nc(N[C@H]4CCC[C@H]4N4CC(F)C4)ncc3C(F)(F)F)c[nH]c2n1 [Compound 156]
2. N#Cc1ccc2c(-c3nc(N[C@H]4CCC[C@@H]4N)ncc3C(F)(F)F)c[nH]c2c1 [Compound 101]
3. CC(C)N1CC[C@H](Nc2ncc(C(F)(F)F)c(-c3c[nH]c4cc(C#N)ccc34)n2)C1 [Compound 105]

## Output
> 7.52
> 7.52
< 6.30

State recorded pIC50 for all listed compounds.
1. CN(C)[C@H]1CCC[C@@H]1Nc1ncc(C(F)(F)F)c(-c2c[nH]c3cc(C#N)ccc23)n1 [Compound 124]
2. CC(=O)N[C@H]1CC[C@@H]1Nc1ncc(C(F)(F)F)c(-c2c[nH]c3cc(C#N)ccc23)n1 [Compound 125]
3. CN1CC[C@H](Nc2ncc(C(F)(F)F)c(-c3c[nH]c4cc(C#N)ccc34)n2)C1 [Compound 109]

## Output
["6.30 to 7.00", "< 6.30", "6.30 to 7.00"]
